test: yeast display, Sf9 membrane polyspecificity reagent, FACS + sequencing; frameworks hold sequencing errors
RECORDED METRIC: polyreactivity (PSR sort gate)

Example entries and their recorded answers appear below.
1. QVQLVQSGGGLVQAGGSLSLICAASGRIFGYYAMGWYRQAPGKERELVDTITFGGGSTYYADSVKGRFTISRDNAKNTVYLQMNSLKPEDTAVYYCAADCGYLGIYGDEYSWGQGTQVTVSS :: low polyreactivity
2. QVQLVESGGGLVQAGGSLRLSCAASGRIFGRNAMGWYRKAPGKERELVAAISWRGGNTYYADSVKGRFTISRDNAKNTVYLQMNSLKPEDTAVYYCNTVQYRNEMGYWGQGTQVTVSS :: high polyreactivity
3. QVHLVESGGGLVQAGRSLRLICAASGSTFPTYAMGWYRQAPGKETELVAAISTRGGSTYYADSVKGRFTISRDNAKNTVYLQMNSVKPEDTAVYYCATGKTVGRYHYEYWGQGTQVTVSS :: low polyreactivity
4. QVQLVESGGGLVQAGGSLRISCAASGSIFRYYAMGWYRQAPGKEREFVDSITYRGGRTYYADSVKGRFTISRDNAKNTVYLQMNSLKPEDTAVYYCAARYRVRYYERDYWGQGTQVTVSS :: high polyreactivity

Let us examine a further case.
### Prompt Find the recorded polyreactivity (PSR sort gate) belonging to QVQLVESGGGLVQAGGSLRLSCAASVRTFRIYAMGWYRQAPGKERELVAAISWDDGSTYYADSVKGRFTISRDNAKNTVYLQMNSLKPEDTAVYYCAAEYYFVNRGAWYDYWGQGTQVTVSS and report it.
### Response high polyreactivity

----------
experiment: yeast display, Sf9 membrane polyspecificity reagent, FACS + sequencing; frameworks hold sequencing errors
RECORDED METRIC: polyreactivity (PSR sort gate)

Please review the following examples before continuing.
1) QVHLVESGGGLVQAGGSLRLSCAASGFTFDFYAMGWYRQAPGKERELVAAISKNDGTTYYADSVKGRFTISRDNAKNTVYLQLNSLKPEDTAVYYCAAESGYPVYTYVSSGDYWGQGTQVTVSS :: low polyreactivity
2) EEELVESGGGLVQAGGSLRLSCAASGRTFVYNAMGWYRQAPWKERELVAAITSGDSTYYADSVKGRFTISRDNAKNTVYLQMNSLKPEDTAVYYCATDYSGIFYWYDYWGQGTQVTVSS :: low polyreactivity
3) QVQLVESGGGLVQAGGSLRLSCAASGSIFFRYAMGWYRQAPGKERELVAAISSSGGSTYYADSVKGRFTISRDNAKNTVYLQMNSLKPEDTAVYYCAARYYRKYYYSPFDYWGQGTQVTVSS :: high polyreactivity
4) QVQLVESGGGLVQAGGSLRLSCAASGRIFFNYAMGWYRQAPGKVRELVASITWRGGNTYYADSVKGRFTISRDNAKNTVYLQMNSLKPEDTAVYYCAASIRRAGRTYYYWGQGTQVTVSS :: high polyreactivity
5) QVQLVESGGGLVQAGGSLRLSCAASGGIFGKYAMGWYRQAPGKERELVAAITSSGGSTFYADSVKGRFTNSRDNAKNTVYLQMNSLKPEDTAVYYCAARFSSYVRRYYYWGQGTQVTVSS :: high polyreactivity

Now for another entry.
### Prompt Which polyreactivity (PSR sort gate) reading was recorded for the sequence QVQLVESGGGLVQAGGSLRLICAASGLTFASYAMGWYRQAPGKERELVAAISSSGRTYYADSVKGRFTISRDNAKNTVYLQMNSLKPEDTAVYYCATRGLSRYYDYYYWGQGTQVTVSS ?
### Response high polyreactivity

----------
assay: yeast display, Sf9 membrane polyspecificity reagent, FACS + sequencing; frameworks hold sequencing errors
RECORDED METRIC: polyreactivity (PSR sort gate)

# example entries with known answers
1) QVQLVESGGGLVQAGGSLRLSCAASGSTFSDYAMGWYRQAPGKERELVAAISYSGGSTYYADSVKGRFTISRDNAKNTVYLQMNSLKPEDTAVYYCAAEYERYFGYDYWGQGTQVTVSS :: low polyreactivity
2) QVQLVESGGGLVQAGGSLRLSCAASGLIFLRYAMGWYRQAPGTERELVAVISSGGRTYYADSVKGRFTISRDNAKNTVYLQMNSLKPEDTAVYYCAARTRSYWGTYGSYHYDYWGQGTQVTVSS :: high polyreactivity
3) QVQLVESGGGLVQAGGSLRLSCAASGSIFWKNVMGWYRHAPGKERELVAGISQNGGSTTYADSVKGRFTISRDNAKNTVYLQMNSLKPEDTAVYYCAAKRYGPFKYGYWGQGTQVTVSS :: high polyreactivity
4) QVQLVESGGGLVQAGGSLRLSCAASGYTFYYAMGWYRQAPGKERELVAAISAGGGRTYYADSVKGRFTISRDNAKNTDYLQMNSLKPEDTAVYYCNRVYRLTAYGYDYWGQGTQVTVSS :: high polyreactivity

# next sequence below
### Prompt Can you look up the measured polyreactivity (PSR sort gate) of QVQLVESGGGLVQAGGSLRLSCAASGRTFGRNAMGWYRQAPGERELVAVISRGGSTYYADSVKGRFTISRDNAKNTVYLQMNSLKPEDTAVYYCNADTVYTRTAPYDYWGQGTQVTVSS for me?
### Response low polyreactivity

----------
test: yeast display, Sf9 membrane polyspecificity reagent, FACS + sequencing; frameworks hold sequencing errors
RECORDED METRIC: polyreactivity (PSR sort gate)

Some sequences with recorded polyreactivity (PSR sort gate):
1) QVQLVELGGGLVQAGGSLRLSCAASGSTFEVYAMGWYRQAPGKERELVAVINVSDGSTYYADSVKGRFTISRDNAKNTVYLQMNSLKPEDTAVYYCAAYRKGKLRMEYWGQGTQVTVSS :: low polyreactivity
2) QVQLVESRRGLVQAGGSLRLSCAASGSIFSGYVMGRYRKAPGKETELVAAITWSGGRTYYADSVKGRFTISRDYAKNTVYLQMNSLKPEDTAVYYCAKRNIKSSGYYYWGQGTQVTVSS :: high polyreactivity
3) QVQLVESGGGLVQAGGRLRLSCAASGSIFAYYAMGSYRQAPGKERELVAAISSSGGSTTYADSVKGRFTISRDNAKYTVYLQMNSLKPDDTAVYYCNAAWRRSRYYNWGQGTQVTVSS :: high polyreactivity
4) QVQLVESGGGLVQAGGSLRLSCAASGRTFGQYVMGWYRKAPGKERELVAAIRSGGSTYYADSVKGRFTISRDNAKNTVYLQMNSLKPEDTAVYYCAKETYYVTDNFGQVGGEMDYWGQGTQVTVSS :: low polyreactivity
5) QVQLVESGGGLVQAGGSLRLSCAASGSTFVSYAMGWYRQEPGKERELVATISQSGGSTSYADSVKGRFTISRDNAKNTVYFQMNCRKPEDTAVYNCAARLRAPHRRSYNYWGQGTQVTVSS :: high polyreactivity

### Prompt Name the reported polyreactivity (PSR sort gate) value associated with the sequence QVQLVESGGGLVQAGGSLRLSCAASGSTFAPNTMGWYRQAPGKERELVAGITDGTITTYADSVKGRFTISRDNAKNTVYLQMNSLKPEDTAVYYCATRQSWYPRWMDYWGQGTQVTVSS
### Response high polyreactivity

### Prompt Now try QVQLVESGGGLVQAGGSLRLSCAASGLIFKWYGMGWYRQAPGKERELVAAITENGGSTYYADSVKGRFTISRDNAKNTVYLQMNSLKPEDTAVYYCAAETWADWYSEFYWGQGTQVTVSS .
### Response high polyreactivity

### Prompt Next entry: QVQLVESGGGLVQAGGSLRLSCAASGRTLPYYAMGWYRQAPGKERELVATISSRGGSTYYADSVKGRFTISRDNAKNTVYLQMNSLKPEDTAVYYCAARGNTPRTRRYGYWGQGTQVTVSS
### Response high polyreactivity

----------
assay: yeast display, Sf9 membrane polyspecificity reagent, FACS + sequencing; frameworks hold sequencing errors
RECORDED METRIC: polyreactivity (PSR sort gate)

1. QVQLVESGGCLVQAGGSLRLSGAASGRIFGRNAMGWYRQAPGKERELVAAINSGVSTYYADSVKGRFTIARDNAKNTVYLQMNSLKPEDTAVYYSATDTDYYLLYLYYYWGQGTQVTVSS :: low polyreactivity
2. QVQLVESGGGLVQAGGSLRLSCAASGYIFTYYAMGWYRQAPGKERELVAAISGSDGNTYYADSVKGRFTISRDNAKKTDYLEMISLKPEDTAVYYCAKSGGLTFRSQRYDYWGQGTQVNVSS :: low polyreactivity

----------
assay: yeast display, Sf9 membrane polyspecificity reagent, FACS + sequencing; frameworks hold sequencing errors
RECORDED METRIC: polyreactivity (PSR sort gate)

1. PVQLVESGGGLVQAGGSLRLSCAASGFTLYDYAMGWYRPAPGKERELVAAISRSGGRTYYADSVKGRFTISRDNAKNTVYLQMNSLKPEDTAVYYCAADILRGQWYEYDYWGQGTQVTVSS :: high polyreactivity
2. QVQLVESGGGLVQAGGSLRLSCAASVIIISYYAIGWYRQAPGKERELVAAITRGGGRTYYADSVKGRFTISRDNAKNTVYLQMNSLKPEDTAVYYCKALSRYVENDYWGQGTQVTVSS :: high polyreactivity
